tested on: α1,3-L-fucosyltransferase of the particulate fraction of ovarian tumor; experiment: Assay of α1,3-fucosyltransferase with synthetic acceptors, ovarian tumor particulate fraction; format: biochemical, human; settings: 2'-methyl LacNAc = 100
parameter.measured: Relative Percent (%)
The response must be a number in % with no trailing unit.

Solved entries (count: 2):
[
  {
    "compound": "CC(=O)N[C@H]1C(O)O[C@H](CO)[C@@H](O[C@@H]2O[C@H](CO)[C@H](O)[C@H](OS(=O)(=O)O)[C@H]2O)[C@@H]1O (stereo partly drawn)",
    "subject.of.test": "α1,3-L-fucosyltransferase of the particulate fraction of ovarian tumor",
    "Relative Percent, %": 39.0
  },
  {
    "compound": "CC(=O)N[C@H]1[C@H](OCc2ccccc2)O[C@H](CO)[C@@H](O)[C@@H]1O[C@@H]1O[C@H](CO)[C@H](O)[C@H](O)[C@H]1O",
    "subject.of.test": "α1,3-L-fucosyltransferase of the particulate fraction of ovarian tumor",
    "Relative Percent, %": 37.8
  }
]

Q. Looking for the measured Relative Percent of CC(=O)N[C@H]1[C@H](OCc2ccccc2)O[C@H](CO)[C@@H](O[C@@H]2O[C@H](CO)[C@H](O)[C@H](O)[C@H]2O[C@@H]2O[C@@H](C)[C@@H](O)[C@@H](O)[C@@H]2O)[C@@H]1O , can you help?
A. 174.0

---

Test system: α1,3-L-fucosyltransferase of the soluble fraction of human ovarian tumor
Assay: Assay of α1,3-fucosyltransferase with synthetic acceptors, partially purified enzyme of ovarian tumor soluble fraction
Assay type: biochemical
Conditions: 2'-methyl LacNAc = 100
Procedure: An incubation mixture contained 50 mM HEPES-NaOH, pH 7.5, 5 mM MnC12, 7 mM ATP, 3 mM NaN3, the acceptor 0.3 mM (for serum enzyme) or 3.0 mM (for tumor enzyme), 0.125 μCi of GDP-[U-^14 C] […] The Dowex column was then eluted successively with 3 ml each of 0.1M and 0.2M NaCl; these eluates which contained the [^14 C] fucosylated sulfated acceptors, were counted for radioactivity as before. […]
parameter.measured: Relative Percent (%)
The response must be a number in % with no trailing unit.

Solved entries (count: 4):
[
  {
    "molecule": "CC(=O)N[C@H]1[C@H](O[C@H]2[C@@H](O)[C@@H](CO)O[C@@H](Oc3ccc([N+](=O)[O-])cc3)[C@@H]2O)O[C@H](CO)[C@@H](O[C@@H]2O[C@H](CO)[C@H](O)[C@H](O)[C@H]2O)[C@@H]1O",
    "unit.annotation": "%",
    "Relative Percent": 87.0
  },
  {
    "molecule": "CC(=O)N[C@H]1C(O)O[C@H](CO)[C@@H](O[C@@H]2O[C@H](CO)[C@H](O)[C@H](O)[C@H]2O[C@@H]2O[C@@H](C)[C@@H](O)[C@@H](O)[C@@H]2O)[C@@H]1O (some centres unmarked)",
    "unit.annotation": "%",
    "Relative Percent": 436.1
  },
  {
    "molecule": "CO[C@H]1[C@H](O[C@H]2[C@H](O)[C@@H](NC(C)=O)[C@H](OCc3ccccc3)O[C@@H]2CO)O[C@H](CO)[C@H](O)[C@@H]1O",
    "unit.annotation": "%",
    "Relative Percent": 113.2
  },
  {
    "molecule": "CC(=O)N[C@H]1C(O)O[C@H](CO)[C@@H](O)[C@@H]1O[C@@H]1O[C@H](CO)[C@H](O)[C@H](O)[C@H]1O (some centres unmarked)",
    "unit.annotation": "%",
    "Relative Percent": 565.5
  }
]

Q. Looking for the measured Relative Percent of CO[C@H]1[C@H](O[C@H]2[C@H](O)[C@@H](NC(C)=O)C(O)O[C@@H]2CO)O[C@H](CO)[C@H](O)[C@@H]1O (some centres unmarked) , can you help?
A. 100

Q. Looking for the measured Relative Percent of CC(=O)N[C@H]1[C@H](OCc2ccccc2)O[C@H](CO)[C@@H](O)[C@@H]1O[C@@H]1O[C@H](CO)[C@H](O)[C@H](O)[C@H]1O , can you help?
A. 1004.5

Q. Looking for the measured Relative Percent of CC(=O)N[C@H]1C(O)O[C@H](CO)[C@@H](O[C@@H]2O[C@H](CO)[C@H](O)[C@H](O)[C@H]2OS(=O)(=O)O)[C@@H]1O (some centres unmarked) , can you help?
A. 32.7

Q. Looking for the measured Relative Percent of CC(=O)N[C@H]1C(O)O[C@H](CO)[C@@H](O[C@@H]2O[C@H](COS(=O)(=O)O)[C@H](O)[C@H](O)[C@H]2O)[C@@H]1O (some centres unmarked) , can you help?
A. 5.3
